System: MOLT-4
Assay: NCI tumour cell line growth inhibition, 48 h
Calls of active or inactive are those of the source. Rule as the data show it: active = GI50 up to about 1.1 µM and inactive = higher. *1 amine or outer side, *2 acyl side, *3 side chain or, on linkers, in order; H or OH if unused. Where a SMILES comes first, the peptide text is derived from it. [ ]: non-standard residue; d: D form. The star is where a group is joined. ξ: configuration not given here. X53 = CC(C)C[C@H](N[*:1])C1=N[C@H](C(=O)[*:2])CS1; Ile(3ξ) = CCC(C)[C@H](N)C(=O)O; Allyl(1,1-Me2) = C=CC(C)(C)*
measured-parameter: GI50

>>> observed_value("O=C(N/C(=C\\c1ccc(/C=C(\\NC(=O)c2ccccc2)c2nc3ccccc3[nH]2)cc1)c1nc2ccccc2[nH]1)c1ccccc1")
"> 100 µM (inactive)"
>>> observed_value("CC(C)OC(=O)c1ccc(CCC2=CC(=O)C(Br)=CC2=O)cc1")
"3.09 µM (inactive)"
>>> observed_value("CCOc1c(OC)cc(-c2nc3n(n2)C(=O)C(CC)S3)cc1OC (configuration not stated)")
"> 10 µM (inactive)"
>>> observed_value("Cc1nc2ccc(S(=O)(=O)Nc3ccccc3)cc2c(=O)n1NC(=O)CNc1ccccc1")
"> 100 µM (inactive)"
>>> observed_value("CC(C)=CC(=O)c1[nH]c2ccccc2c1CC(=O)NCCc1cn(C(c2ccccc2)(c2ccccc2)c2ccccc2)cn1")
"2.26 µM (inactive)"
>>> observed_value("O=C1CCCCC/C1=C\\c1ccc([N+](=O)[O-])cc1")
"41.7 µM (inactive)"
>>> observed_value("C=CC(C)(C)OC[C@@H]1NC(=O)CNC(=O)[C@@H]2CCCN2C(=O)[C@H](C(C)CC)NC(=O)[C@@H]2CSC(=N2)[C@H](CC(C)C)NC1=O (some centres not stated) (cyclo(GS(Allyl(1,1-Me2))[X53][Ile(3ξ)]P))")
"27.5 µM (inactive)"
>>> observed_value("Cc1c(Cl)cccc1NC(=O)/C(Cl)=C(\\Cl)C(=O)O")
"7.43 µM (inactive)"
>>> observed_value("Fc1ccc(C2SCc3nc4ccccc4n32)cc1Cl (configuration not stated)")
"23.2 µM (inactive)"
>>> observed_value("C/C=C\\C(CC(=O)NCC(=O)c1c[nH]c2ccccc12)CC(=O)OC (configuration not stated)")
"> 100 µM (inactive)"
>>> observed_value("Cc1ccc([N+](=O)[O-])cc1NC(=O)/C(CC(=O)c1sc(C(N)=S)nc1C)=N\\N")
"68.5 µM (inactive)"
>>> observed_value("CSC(C1c2ccccc2N(c2ccc(C)cc2)C2=NC(=O)N(C)C(=O)C21Cl)S(=O)(=O)c1ccc(C)cc1 (configuration not stated)")
"6.08 µM (inactive)"
>>> observed_value("CCOC(=O)C12CCCC1(O)N(NC(=O)OC(C)(C)C)C(C)=C2C(=O)OC (configuration not stated)")
"> 100 µM (inactive)"
>>> observed_value("O=c1c2cccnc2ncn1CCCN1CCOCC1")
"> 10 µM (inactive)"
>>> observed_value("CCOC(=O)c1c(/C=N\\Nc2ccccc2)nc2ccccc2c1-c1ccccc1")
"20.7 µM (inactive)"
>>> observed_value("CCNC(=O)O/N=C1\\CCC2[C@@H]3CC=C4C[C@@H](OC5CCCCO5)CC[C@]4(C)C3CC[C@]12C (some centres not stated)")
"1.61 µM (inactive)"
>>> observed_value("CCCC[C@@H]1CCN2C[C@@H](O)[C@@H](O)[C@H]2[C@@H]1O")
"> 100 µM (inactive)"
>>> observed_value("CCOC(=O)N1N=NC2C3OC(C[C@@]3(C#N)OC(C)=O)[C@H]21 (some centres not stated)")
"> 100 µM (inactive)"
>>> observed_value("CC1=CC2C(O1)C1C(=O)C=CC(=O)C1=CC2[N+](=O)[O-] (configuration not stated)")
"3.48 µM (inactive)"
>>> observed_value("CC(C)(C)c1ccc2c(c1)OP1(Oc3c(Cl)cc(Cl)c4cccnc34)(O2)Oc2ccc(C(C)(C)C)cc2O1")
"2.81 µM (inactive)"
>>> observed_value("COc1cc(C(=O)/C=C/c2ccc(OCC#N)cc2)cc(OC)c1OC")
"27 µM (inactive)"
>>> observed_value("CC1=NN(C(=O)CC(=O)Nc2ccc(C)cc2)C(=O)C1/N=N\\c1ccc(S(=O)(=O)c2ccc(/N=N/C3C(=O)N(C(=O)CC(=O)Nc4ccc(C)cc4)N=C3C)cc2)cc1 (configuration not stated)")
"42.5 µM (inactive)"
>>> observed_value("N#Cc1c(NC(=S)Nc2ccccc2)sc2c1CCCC2")
"> 100 µM (inactive)"
>>> observed_value("O=[N+]([O-])c1cccc(/C=N/C23CC4CC(CC(C4)C2)C3)c1")
"74.1 µM (inactive)"
>>> observed_value("Cc1cccc(C(C)(C)C)c1NC(=O)CCc1n[nH]c(=S)o1")
"> 100 µM (inactive)"
>>> observed_value("O=C1C=C(Nc2cccnc2)c2ccccc2C1=O")
"17.6 µM (inactive)"
>>> observed_value("Nc1nncc2c1c(Br)cn2C1OC(CO)C(O)C1O (configuration not stated)")
"2.91 µM (inactive)"
